molecular target: DCAF1 WD40 domain (residues 1077-1390) (Homo sapiens); construct: DCAF1 WD40 domain (residues 1077-1390); experiment: DCAF1 binding assay by SPR (Biacore 8K+), DCAF1-3 KD; details: 25 °C, read-out: DCAF1-3 SPR (KD)
Sequence (Q9Y4B6 1077-1390): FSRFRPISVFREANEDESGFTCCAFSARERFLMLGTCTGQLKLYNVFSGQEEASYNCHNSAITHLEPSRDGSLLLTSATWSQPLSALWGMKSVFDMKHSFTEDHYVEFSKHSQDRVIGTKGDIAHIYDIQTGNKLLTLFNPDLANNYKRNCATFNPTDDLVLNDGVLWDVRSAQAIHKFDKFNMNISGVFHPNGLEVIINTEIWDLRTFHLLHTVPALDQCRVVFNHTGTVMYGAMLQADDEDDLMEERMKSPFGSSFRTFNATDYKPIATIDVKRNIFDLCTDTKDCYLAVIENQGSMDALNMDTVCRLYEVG
pKd: −log10 of the molar value.
assay-metric: pKd

Just so you know, measured pKd for O=C(c1cc(N2CCCCC2)ccn1)[C@H]1CCCN(c2cccc(F)c2)C1 [I-613] came out at 4.00 to 5.00

Just so you know, measured pKd for Nc1ccc(F)cc1N1CCC[C@@H]2[C@H]1CCN2c1cc(N2CCCCC2)ccn1 [I-811] came out at > 5.00

Just so you know, measured pKd for CCn1cc(C(=O)N[C@@H](CC(N)=O)c2cccc(Cl)c2)c(-c2c(F)ccc(F)c2C)c1C#N [I-974] came out at > 5.00

Just so you know, measured pKd for COC[C@@](CC(N)=O)(NC(=O)c1c[nH]nc1-c1ccccc1F)c1cccc(Cl)c1 [I-265] came out at < 3.70

Just so you know, measured pKd for Oc1cccc(N2CCC[C@@H](Nc3cc(N4CCOCC4)ncn3)C2)c1 [I-13] came out at < 3.70

Just so you know, measured pKd for COc1ccc(N2CCC[C@@H]3[C@H]2CCN3c2cc(N3CC4CC(C4)C3)ccn2)cc1F [I-722] came out at < 3.70

Just so you know, measured pKd for Cc1c(F)ccc(F)c1-c1c(C(=O)N[C@@H](CC(N)=O)c2cccc(Cl)c2)cn(C)c1C(=O)c1ccc(CN2CCC(C=O)CC2)cc1 [I-1037] came out at > 5.00

Just so you know, measured pKd for O=C(O)C[C@H](NC(=O)c1cn[nH]c1-c1ccccc1F)c1cccc(Cl)c1 [I-740] came out at 4.00 to 5.00

Just so you know, measured pKd for Cc1c(F)ccc(F)c1-c1c(C(=O)N[C@@H](CC(N)=O)c2cccc(Cl)c2)cn(C)c1C(=O)c1ccc(OCCOCCOCCOCCOCCN)cc1 [I-1017] came out at > 5.00

Just so you know, measured pKd for c1cnc2c(N3CCC[C@@H](Nc4cc(N5CCOCC5)ccn4)C3)cnn2c1 [I-417] came out at < 3.70

Just so you know, measured pKd for C=CC(=O)NCCCN1CCN(c2ccnc(N3CC[C@@H]4[C@H]3CCCN4c3cccc(F)c3)c2)CC1 [I-846] came out at 4.00 to 5.00

Just so you know, measured pKd for COc1cc(N[C@@H]2CCCN(c3cccc(F)c3)C2)cc(N2CCOCC2)c1 [I-547] came out at < 3.70

Just so you know, measured pKd for Cn1cncc1N1CCC[C@@H](Nc2cc(N3CCOCC3)ccn2)C1 [I-773] came out at 4.00 to 5.00

Just so you know, measured pKd for Oc1ccc(N2CCC[C@@H](Nc3cc(N4CCCCC4)ccn3)C2)cc1F [I-716] came out at 4.00 to 5.00

Just so you know, measured pKd for c1ccc2c(N3CCC[C@@H](Nc4cc(N5CCOCC5)ccn4)C3)ncnc2c1 [I-67] came out at < 3.70

Just so you know, measured pKd for Cc1c(F)ccc(F)c1-c1[nH]ncc1C(=O)N[C@H](c1cccc(Cl)c1)C1CCCS1(=O)=O (some centres unmarked) [I-999] came out at 4.00 to 5.00

Just so you know, measured pKd for NC(=O)C[C@H](NC(=O)c1cn[nH]c1-c1c(F)ccc(F)c1C(F)(F)F)c1cccc(Cl)c1 [I-793] came out at > 5.00

Just so you know, measured pKd for Fc1cccc(N2CCC[C@H]3[C@@H]2CCN3c2cc(N3CCCCC3)ccn2)c1 [I-580] came out at 3.70 to 4.00

Just so you know, measured pKd for NC(=O)C[C@H](NC(=O)c1c[nH]nc1-c1cc(F)ccc1F)c1cccc(Cl)c1 [I-267] came out at < 3.70

Just so you know, measured pKd for Fc1cccc(N2CCC[C@@H](Nc3cc(N4CCCC5(CC5)C4)ccn3)C2)c1 [I-573] came out at 4.00 to 5.00
